The reported numbers originate from patent US11214577B2.

Listed here are compounds together with their documented Selectivity μ/k.
TESTED TARGET: recombinant human mu opioid receptor (Homo sapiens)
Construct: expressed in transfected cells; host or cells: HEK293 (membranes)
ASSAY TEXT: Opioid receptor radioligand binding assay, mu
MEASUREMENT CONDITIONS: ratio of Mu IC50 to Kappa IC50
PARAMETER MEASURED: Selectivity μ/k

>>> print(df.to_string())
                                   compound                             tested_target  rel  measurement
0  CN(C(=O)[C@@H]1C[C@H]1c1ccc(O)cc1)[C@@H]1CC[C@@]2(O)[C@H]3Cc4ccc(O)c5c4[C@@]2(CCN3CC2(O)CC2)[C@H]1O5 [Compound 21b]  recombinant human mu opioid receptor (Homo sapiens)    <         0.57
1  CN(C(=O)C1CC1c1ccc(O)cc1)C1CCC2(O)C3Cc4ccc(O)c5c4C2(CCN3CC2(O)CC2)C1O5 (single isomer, unassigned) [Compound 20a]  recombinant human mu opioid receptor (Homo sapiens)    =         1.12
2  CN(C(=O)[C@H]1C[C@@H]1c1ccoc1)[C@@H]1CC[C@@]2(O)[C@H]3Cc4ccc(O)c5c4[C@@]2(CCN3CC2(O)CC2)[C@H]1O5 [Compound 17a]  recombinant human mu opioid receptor (Homo sapiens)    =         4.07

====

TESTED TARGET: recombinant human mu opioid receptor (Homo sapiens, UniProt P35372)
Construct: expressed in transfected cells; host or cells: HEK293 (membranes)
Sequence (P35372 whole entry): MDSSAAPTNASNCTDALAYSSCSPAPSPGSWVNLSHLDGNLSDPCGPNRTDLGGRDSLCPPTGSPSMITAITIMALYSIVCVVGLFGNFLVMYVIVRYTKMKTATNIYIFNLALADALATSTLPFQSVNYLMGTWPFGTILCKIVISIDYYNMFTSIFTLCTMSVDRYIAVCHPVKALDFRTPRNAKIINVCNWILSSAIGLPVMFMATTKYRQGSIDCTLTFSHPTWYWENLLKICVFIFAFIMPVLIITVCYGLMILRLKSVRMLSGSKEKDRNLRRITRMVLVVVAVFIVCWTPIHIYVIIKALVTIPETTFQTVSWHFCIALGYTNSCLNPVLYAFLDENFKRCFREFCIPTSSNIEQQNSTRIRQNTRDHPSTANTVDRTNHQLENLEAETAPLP
ASSAY TEXT: Opioid receptor radioligand binding assay, mu
MEASUREMENT CONDITIONS: Binding Affinity Mu IC50, membranes of HEK293 cells; radioligand [3H]DAMGO 0.5 nM
Listed here are compounds together with their documented IC50.
PARAMETER MEASURED: IC50 (nM)

                                   compound  parameter_measured  measurement
0  CN(C(=O)C1CC1c1ccsc1)C1CCC2(O)C3Cc4ccc(O)c5c4C2(CCN3CC2(O)CC2)C1O5 (single isomer, unassigned) [Compound 18a]                IC50         1.58
1  CN(C(=O)[C@@H]1C[C@H]1c1ccc(O)cc1)[C@H]1CC[C@@]2(O)[C@H]3Cc4ccc(O)c5c4[C@@]2(CCN3CC2(O)CC2)[C@H]1O5 [Compound 20b]                IC50         8.08
2  CN(C(=O)C1CC1c1ccsc1)C1CCC2(O)C3Cc4ccc(O)c5c4C2(CCN3CC2(O)CC2)C1O5 (single isomer, unassigned) [Compound 18b]                IC50         76.8
3  CN(C(=O)C1CC1c1ccc(O)cc1)C1CCC2(O)C3Cc4ccc(O)c5c4C2(CCN3CC2(O)CC2)C1O5 (single isomer, unassigned) [Compound 20a]                IC50          119
4  CN(C(=O)[C@H]1C[C@@H]1c1ccoc1)[C@H]1CC[C@@]2(O)[C@H]3Cc4ccc(O)c5c4[C@@]2(CCN3CC2CC2)[C@H]1O5                IC50          0.3

====

TESTED TARGET: recombinant human delta opioid receptor (Homo sapiens, UniProt P41143)
Construct: expressed in transfected cells; host or cells: HEK293 (membranes)
Sequence (P41143 whole entry): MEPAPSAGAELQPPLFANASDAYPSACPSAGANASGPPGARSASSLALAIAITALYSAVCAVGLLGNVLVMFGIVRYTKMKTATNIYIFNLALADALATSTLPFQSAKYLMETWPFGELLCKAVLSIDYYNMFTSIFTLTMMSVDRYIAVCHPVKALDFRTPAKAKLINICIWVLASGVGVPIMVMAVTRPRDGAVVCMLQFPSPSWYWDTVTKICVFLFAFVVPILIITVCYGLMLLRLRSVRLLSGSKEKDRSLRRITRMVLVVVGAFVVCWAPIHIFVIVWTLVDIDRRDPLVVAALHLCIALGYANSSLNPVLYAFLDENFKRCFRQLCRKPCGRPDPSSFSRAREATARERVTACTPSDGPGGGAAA
ASSAY TEXT: Opioid receptor radioligand binding assay, delta
MEASUREMENT CONDITIONS: ratio of Delta IC50 to Kappa IC50
Listed here are compounds together with their documented Selectivity δ/k.
PARAMETER MEASURED: Selectivity δ/k

>>> df
                                   compound  parameter_measured  rel  measurement
0  CN(C(=O)[C@@H]1C[C@H]1c1ccoc1)[C@@H]1CC[C@@]2(O)[C@H]3Cc4ccc(O)c5c4[C@@]2(CCN3CC2CC2)[C@H]1O5 [Compound 5b]     Selectivity δ/k    =         8.90
1  CN(C(=O)[C@@H]1C[C@H]1c1ccoc1)[C@@H]1CC[C@@]2(O)[C@H]3Cc4ccc(O)c5c4[C@@]2(CCN3CC2(O)CC2)[C@H]1O5 [Compound 17b]     Selectivity δ/k    =         11.0
2  CN(C(=O)C1CC1c1ccc(O)cc1)C1CCC2(O)C3Cc4ccc(O)c5c4C2(CCN3CC2(O)CC2)C1O5 (single isomer, unassigned) [Compound 21a]     Selectivity δ/k    =         35.6
3  CN(C(=O)[C@H]1C[C@@H]1c1ccoc1)[C@@H]1CC[C@@]2(O)[C@H]3Cc4ccc(O)c5c4[C@@]2(CCN3CC2(O)CC2)[C@H]1O5 [Compound 17a]     Selectivity δ/k    =         35.3
4  CN(C(=O)[C@@H]1C[C@H]1c1ccoc1)[C@H]1CC[C@@]2(O)[C@H]3Cc4ccc(O)c5c4[C@@]2(CCN3CC2CC2)[C@H]1O5 [Compound 7b]     Selectivity δ/k    =         2.82
5  CN(C(=O)C1CC1c1ccsc1)C1CCC2(O)C3Cc4ccc(O)c5c4C2(CCN3CC2(O)CC2)C1O5 (single isomer, unassigned) [Compound 18b]     Selectivity δ/k    =         19.2
6  CN(C(=O)[C@@H]1C[C@H]1c1ccc(O)cc1)[C@@H]1CC[C@@]2(O)[C@H]3Cc4ccc(O)c5c4[C@@]2(CCN3CC2(O)CC2)[C@H]1O5 [Compound 21b]     Selectivity δ/k    <         1.93
7  CN(C(=O)C1CC1c1ccoc1)C1CCC2(O)C3Cc4ccc(O)c5c4C2(CCN3CC2(O)CC2)C1O5 (single isomer, unassigned) [Compound 16b]     Selectivity δ/k    =         5.05
8  CN(C(=O)C1CC1c1ccsc1)C1CCC2(O)C3Cc4ccc(O)c5c4C2(CCN3CC2(O)CC2)C1O5 (single isomer, unassigned) [Compound 19a]     Selectivity δ/k    =         96.1

====

Listed here are compounds together with their documented IC50.
TESTED TARGET: recombinant human kappa opioid receptor (Homo sapiens)
Construct: expressed in transfected cells; host or cells: HEK293 (membranes)
Sequence (P41145 whole entry): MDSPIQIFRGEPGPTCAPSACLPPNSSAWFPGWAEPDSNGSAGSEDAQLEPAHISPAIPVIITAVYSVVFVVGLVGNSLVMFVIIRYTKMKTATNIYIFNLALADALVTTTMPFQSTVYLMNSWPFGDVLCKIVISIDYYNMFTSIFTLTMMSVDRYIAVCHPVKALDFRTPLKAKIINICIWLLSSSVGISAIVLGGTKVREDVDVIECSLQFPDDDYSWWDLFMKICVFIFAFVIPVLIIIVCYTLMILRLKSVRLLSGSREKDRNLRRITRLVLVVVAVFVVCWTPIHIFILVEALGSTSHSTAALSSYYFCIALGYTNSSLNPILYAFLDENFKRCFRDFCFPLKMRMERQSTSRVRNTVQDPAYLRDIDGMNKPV
ASSAY TEXT: biochemical
MEASUREMENT CONDITIONS: membranes of HEK293 cells; radioligand [3H]diprenorphine 0.5 nM; read-out: Binding Affinity Kappa IC50
PARAMETER MEASURED: IC50

>>> df
                                   compound                             tested_target  measurement
0  CN(C(=O)[C@H]1C[C@@H]1c1ccoc1)[C@@H]1CC[C@@]2(O)[C@H]3Cc4ccc(O)c5c4[C@@]2(CCN3CC2(O)CC2)[C@H]1O5 [Compound 17a]  recombinant human kappa opioid receptor (Homo sapiens)      1.22 nM
1  CN(C(=O)C1CC1c1ccsc1)C1CCC2(O)C3Cc4ccc(O)c5c4C2(CCN3CC2(O)CC2)C1O5 (single isomer, unassigned) [Compound 18b]  recombinant human kappa opioid receptor (Homo sapiens)      6.15 nM
2  CN(C(=O)[C@@H]1C[C@H]1c1ccoc1)[C@@H]1CC[C@@]2(O)[C@H]3Cc4ccc(O)c5c4[C@@]2(CCN3CC2CC2)[C@H]1O5 [Compound 5b]  recombinant human kappa opioid receptor (Homo sapiens)      7.76 nM
3  CN(C(=O)[C@@H]1C[C@H]1c1ccc(O)cc1)[C@@H]1CC[C@@]2(O)[C@H]3Cc4ccc(O)c5c4[C@@]2(CCN3CC2(O)CC2)[C@H]1O5 [Compound 21b]  recombinant human kappa opioid receptor (Homo sapiens)     > 200 nM
4  CN(C(=O)C1CC1c1ccoc1)C1CCC2(O)C3Cc4ccc(O)c5c4C2(CCN3CC2(O)CC2)C1O5 (single isomer, unassigned) [Compound 16b]  recombinant human kappa opioid receptor (Homo sapiens)      6.74 nM
5  CN(C(=O)[C@@H]1C[C@H]1c1ccc(O)cc1)[C@H]1CC[C@@]2(O)[C@H]3Cc4ccc(O)c5c4[C@@]2(CCN3CC2(O)CC2)[C@H]1O5 [Compound 20b]  recombinant human kappa opioid receptor (Homo sapiens)        16 nM
6  CN(C(=O)C1CC1c1ccc(O)cc1)C1CCC2(O)C3Cc4ccc(O)c5c4C2(CCN3CC2(O)CC2)C1O5 (single isomer, unassigned) [Compound 21a]  recombinant human kappa opioid receptor (Homo sapiens)      0.85 nM
